// provenance: the supplement of paper PMC9170038

# System: MS2 coat protein
# Test description: apparent KD of MS2 coat protein; higher = weaker reporter binding
# Cond: Eterna round: R107; input ligand: theophylline 20 uM
The following sequences are listed with their measured apparent KD of MS2 coat protein values.
Please state the number and follow it with the unit.

UUAGCACAUGAGGAUCACCCAUGUCUCGAUACCAGAUAAGUUCCGAUCCCUUGGCAGCGACAAGCUUGCAAACUGCGACUAUUCU [theeternabot_sameState_MS2_Theo_A_42]    0.0322 µM
GGAAGGACAGUUGAUACCAGUUUCAAAGGCGGUAAUCACUACAUGAGGAUCACCCAUGUCAACCCUUGGCAGCAAUAGACCGUGG [theeternabot_exclusion_MS2_Theo_B_6]    0.0281 µM

// below: apparent KD of MS2 coat protein requested for another sequence
In: State its apparent KD of MS2 coat protein on MS2 coat protein: AUUCUUUACUGAAGGAGCGUCAUUCUUACAUGAGGAUCACCCAUGUUUAUUCUUUAUGAUUGACAGGUAGGUCGCAGAUUUUUUA [#11 Same State - Arginine B]
Out: 0.0244 µM

---

Overview of reported apparent KD of MS2 coat protein across a group of sequences:
# Test system: MS2 coat protein
# Test description: apparent KD of MS2 coat protein; designed switch direction (-1 OFF switch, 1 ON switch): -1; higher = weaker reporter binding
# Cond: Eterna round: R95; input ligand: microRNA oligo, concentration not stated
Provide only the numeric value, understood in nM.

// below: answered sequences
CGUACUGAAGUGAGGAUAUUGUCUCGGAUACGAAACAAGAAGGCACAUGAGGAUCACCCAUGUUGACAGUACGA [Malc #30 mod 7] (puzzle: Brourd's mod of Exclusion 4)    15
AAAAAACAAGGAUAUACAAAAAAAAAAUGUGAUAAAAAACCACAUGAGGAUCACCCAUGUAGAAGGUGUAAAAA [JR_Exclusion2_Sub003] (puzzle: Exclusion 2)    62.8

In: Recorded apparent KD of MS2 coat protein for AAACCUGCCCAUGACCGCAAGCCUUUUGCUUGUCUUACCACAUGAGGAUCACCCAUGUGACAUGGGCUCCUUAUAAA [Solabixe] (puzzle: Sensor v3, turn-off variant 2) , please?
Out: 10.5

---

Recorded apparent KD of MS2 coat protein values for a group of sequences are listed next.
# System: MS2 coat protein
# Test description: apparent KD of MS2 coat protein; designed switch direction (-1 OFF switch, 1 ON switch): -1; higher = weaker reporter binding
# Cond: Eterna round: R95; input ligand: microRNA oligo, concentration not stated
Remember to quote the unit after the number.

Some sequences with recorded apparent KD of MS2 coat protein:
GGAUCGUAUGUCAGGAUAUACCACUGGAUACAGUGGUAGAAGGGACAUGAGGAUCACCCAUGUUCUAUCGAUCC [Fiskers BMX 4 - 53] (puzzle: Brourd's mod of Exclusion 4)    12.5 nM
AUACUCGUUGUGAGGAUAUCGUUUUCGUCACGGAUCGAGAAGGCACAUGAGGAUCACCCAUGUUUGACGUGAAU [JR_BMOE4_Sub092] (puzzle: Brourd's mod of Exclusion 4)    15.4 nM
UAAUACAAGCAAAGAUCUUACAUGAGGAUCACCCAUGUGCUCGUCUUAUAAAGUACUAUCACGAAAGUGAUAGUACU [Mat - Sensor v3 - turn-off var 1 - Eli Mod - D94] (puzzle: Sensor v3, turn-off variant 1)    202 nM
CUCGGACAUGAGGAUCACCCAUGUGAGGAUAUGGUGCUAUCGUCAUUAGACGAUUGCGUUAGAAGGCACAAAUG [LRO-Excl1-28] (puzzle: Exclusion 1)    35.2 nM

Now examine the next entry.
In: Fill blank: measured apparent KD of MS2 coat protein of the sequence CUUCGUAUAGAGGAUAUAGGUUACUACGGUAUCCUAGAAGGCUGUACAUGAGGAUCACCCAUGUACUUCAGAUC [Exclusion 6 - B - 13:d] (puzzle: Exclusion 6) is ____.
Out: 12.2 nM

---

# Test system: K4 kissing-loop RNA reporter;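 also: bound reporter read as fluorescence of individual clusters on recovered sequencing chips by microscopy, with normalized cluster intensities fitted with a binding model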
# Test description: apparent KD of K4 kissing-loop reporter; higher = weaker reporter binding
# Cond: Eterna round: R107; input ligand: tryptophan 2.4 mM
This section presents sequences with their documented apparent KD of K4 kissing-loop reporter values.
Just the number please, in nM, no unit attached.

Below, each entry is followed by its recorded apparent KD of K4 kissing-loop reporter result.
UGGUUUAACUGAAGGAGCGGCAAUUGAUAAGUAGAUAUAGUGAUGUUAUAUAAGAUAGAGAGCCAGGUAGGUCGCAGAGGUAUUU [ExArgB.P]    197
CUGACUAAAUAGUCAGUGAUGUUGACUGGACGAGGACCGGUACGGCCGCCACUCGAGAGUGGUGUAAUAUAUGUCAUAUAGUCAA [Tryp A SS t3]    233
AACGUUUUGUGAAGGAGCGCGAUAAGCAGUGAUGUUGCUUACUUACAAUUUAUAUUUUACACGCAGGUAGGUCGCACAAUACGUA [JR_SSArginiB_Sub017]    173
CGGAGUCGCGGAAGGAGCGCUCGAUAGACAAGUUGAUCGUGCCGUGGUCGAGUGAUGUUCGAGCAGGUAGGUCGCCGUCGGUCCC [Cexeatedma]    230
CAACGAGUGAUGGUCGUUGACGGCCAUCCCGAGGAUAUGGGAUUUUCCAGAAGGCGGGAUCGCCCGGAGUGAUGUUCCGUGAUUU [Same State FMN A GF 15]    116

In: Recorded apparent KD of K4 kissing-loop reporter of UAUAGAGUGACGGCCGCCACUAUUGUGAUUUAAUUGUUAGAGUGAUGUUUUGUUGUUUGAUUUUGUAGGACCGGGUUAUAUGUUA [ecewzmullin] , please.
Out: 802

In: Quick one: apparent KD of K4 kissing-loop reporter for GUCUGCGUCUCGGCCGCCACUCACUAGUGAUGUUAGUAAGGAGCGACUAGAGAAGUCCAGUUAAUGAGGACCGGGAGAAGCUCUU [Exclusion Tryptophan B GF 3] ?
Out: 117

In: Reported apparent KD of K4 kissing-loop reporter, sequence UCUUUUGGCAUGGAUAGAAUGCCGACCGAUACCAGCAAAGUAGGAUGCCCUUGGCAGCGGAGUGAUGUUCCAUUGUCGCGGUUUG [theeternabot_exclusion_KL_Theo_A_48] : ____
Out: 76.9

In: Given the entry GCCUUUUUUCGAGCUACAGCUCGAUUUGGUCGAGGACCGGUACGGCCGCCACUCGAAUGAUAGUGAUGUUAUCAUUAUGGCAUAA [JR_ExcTryptoA_Sub023] , report its measured apparent KD of K4 kissing-loop reporter.
Out: 152

In: Given the entry CGUACGGUUUCUUUCUUUCCGUACGAGUGCCGAGGACCGGUACGGCCGCCACUCGCUACAGCCUAGUGAUGUUAGGCGAUUCUUU , report its measured apparent KD of K4 kissing-loop reporter.
Out: 102

In: Look up apparent KD of K4 kissing-loop reporter for this sequence: GAUUUAGAGGCGGCCGCCACUAGUGAUGUUAGUGAUGUUUGAUACUGAAUAUAUCUGCGUGUAGAUAGGACCGGGCCAGAUGGAG [eyerullin]
Out: 180

In: Any idea what its apparent KD of K4 kissing-loop reporter is? The sequence is AAAAUAAACCAGUGAUGUUGGUGUCUAGAUACCAGCGACAAAAGUCGCCCUUGGCAGCUACGGACGUACAAAAUAAGUACGUCCU [MatMod 9 - Jieux - Same State - Theophylline A]
Out: 405

---

// reported apparent KD of MS2 coat protein for each item listed
# System: MS2 coat protein
# Test description: apparent KD of MS2 coat protein; designed switch direction (-1 OFF switch, 1 ON switch): 1; higher = weaker reporter binding
# Cond: input ligand: FMN 200 uM
# output: bare number, implied unit nM

GGGAGACAUGAGGAUCACCCAUGUGAGAAGAGGCGAGGAUAUCGAAAAAAAAAAAAAAAACGAGAAGGCGCGAGAU [salish99-SS1-004] (Eterna round: R96, puzzle: Same State 1)    43.5
GCUAGAAAUAAAGCCAACAUGAGGAUCACCCAUGUAUGUUGGUAGGAUAUCGUAUGCAAAGCAUACGAGAAGGGCUAAUCUAGC [Mat - Same State NG 3 - JL Mod - D66] (Eterna round: R96, puzzle: Same State NG 3)    90.8
CUAUCUACAGGUUGCAGUGCUCGUCUUAUACAUGAGGAUCACCCAUGUUAUAGCCCGGUGCUUGCGCUGGGCUGAUU [JL ViennaUCT Tearor mod 2] (Eterna round: R96, puzzle: Sensor for hsa-mir-208a)    40.9

In: Query for MS2 coat protein: what apparent KD of MS2 coat protein does the record show for AUUAUUAAUAUAGGAUAUGUAAAACAUGAGGAUCACCCAUGUGAUAUCGUGAGUAAGGAGAGAGAACAGAAGGAUAAUUUUUUU [JMF's solution 1] (Eterna round: R96, puzzle: Same State NG 2) ?
Out: 38.1
